molecular target: AhR (Homo sapiens, UniProt P35869); experiment: Reporter gene assay in AZ-AHR cells, agonist analyses (luciferase); details: Table 1 summary class
Sequence (P35869 11-848): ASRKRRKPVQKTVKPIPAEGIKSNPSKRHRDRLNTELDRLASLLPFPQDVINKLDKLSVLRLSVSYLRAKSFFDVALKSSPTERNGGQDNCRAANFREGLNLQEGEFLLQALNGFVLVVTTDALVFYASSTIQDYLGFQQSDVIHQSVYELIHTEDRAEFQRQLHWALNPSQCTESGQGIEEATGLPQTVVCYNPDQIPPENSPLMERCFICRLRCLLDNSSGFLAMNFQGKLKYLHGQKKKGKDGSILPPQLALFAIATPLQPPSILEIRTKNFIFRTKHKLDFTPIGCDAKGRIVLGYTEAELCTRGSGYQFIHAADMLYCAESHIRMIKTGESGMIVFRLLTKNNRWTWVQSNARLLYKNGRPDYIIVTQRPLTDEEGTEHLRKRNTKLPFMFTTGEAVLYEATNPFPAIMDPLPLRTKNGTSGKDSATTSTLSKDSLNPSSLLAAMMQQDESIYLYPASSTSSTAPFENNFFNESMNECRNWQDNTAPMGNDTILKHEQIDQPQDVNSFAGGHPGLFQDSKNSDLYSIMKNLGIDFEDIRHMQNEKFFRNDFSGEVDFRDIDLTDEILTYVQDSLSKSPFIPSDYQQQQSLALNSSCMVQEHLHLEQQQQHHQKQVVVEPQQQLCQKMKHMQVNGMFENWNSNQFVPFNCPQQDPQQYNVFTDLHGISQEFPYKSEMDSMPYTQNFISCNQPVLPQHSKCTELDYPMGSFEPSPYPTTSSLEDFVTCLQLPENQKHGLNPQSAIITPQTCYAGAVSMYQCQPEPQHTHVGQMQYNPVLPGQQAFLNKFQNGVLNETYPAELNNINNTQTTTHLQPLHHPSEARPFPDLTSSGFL
ASSAY METRIC: Efficacy (EMAX)

COMPOUND | ASSAY RESULT
O=C(O)C(O)Cc1c[nH]c2ccccc12 (stereo not drawn) [ILA, indole-3-lactate] | low
Cc1c[nH]c2ccccc12 | medium
O=Cc1c[nH]c2ccccc12 | low
NCCc1c[nH]c2ccccc12 | medium
OCCc1c[nH]c2ccccc12 | medium
NC(=O)Cc1c[nH]c2ccccc12 [IAD, indole-3-acetamide] | high
O=C(O)C(=O)Cc1c[nH]c2ccccc12 [IPY, indole-3-pyruvate] | high
O=C(O)/C=C/c1c[nH]c2ccccc12 [IAC, indole-3-acrylate] | medium

Let us examine a further case.
Qu. Please look at O=C(O)CCc1c[nH]c2ccccc12 [IPA, indole-3-propionate] and tell me its recorded Efficacy (EMAX) on AhR (Homo sapiens, UniProt P35869).
Ans. low

From: paper PMC7177849
